- tgt: human GRIN1 (transcript variant NR1-3) and GRIN2D expressed in Xenopus oocytes (Homo sapiens)
- Construct: GenScript (GRIN2D synthesis) SC115601; host or cells: Xenopus oocytes injected with cRNA (1 GluN1 : 2 GluN2)
- Sequence (O15399 28-1336, other chains not shown): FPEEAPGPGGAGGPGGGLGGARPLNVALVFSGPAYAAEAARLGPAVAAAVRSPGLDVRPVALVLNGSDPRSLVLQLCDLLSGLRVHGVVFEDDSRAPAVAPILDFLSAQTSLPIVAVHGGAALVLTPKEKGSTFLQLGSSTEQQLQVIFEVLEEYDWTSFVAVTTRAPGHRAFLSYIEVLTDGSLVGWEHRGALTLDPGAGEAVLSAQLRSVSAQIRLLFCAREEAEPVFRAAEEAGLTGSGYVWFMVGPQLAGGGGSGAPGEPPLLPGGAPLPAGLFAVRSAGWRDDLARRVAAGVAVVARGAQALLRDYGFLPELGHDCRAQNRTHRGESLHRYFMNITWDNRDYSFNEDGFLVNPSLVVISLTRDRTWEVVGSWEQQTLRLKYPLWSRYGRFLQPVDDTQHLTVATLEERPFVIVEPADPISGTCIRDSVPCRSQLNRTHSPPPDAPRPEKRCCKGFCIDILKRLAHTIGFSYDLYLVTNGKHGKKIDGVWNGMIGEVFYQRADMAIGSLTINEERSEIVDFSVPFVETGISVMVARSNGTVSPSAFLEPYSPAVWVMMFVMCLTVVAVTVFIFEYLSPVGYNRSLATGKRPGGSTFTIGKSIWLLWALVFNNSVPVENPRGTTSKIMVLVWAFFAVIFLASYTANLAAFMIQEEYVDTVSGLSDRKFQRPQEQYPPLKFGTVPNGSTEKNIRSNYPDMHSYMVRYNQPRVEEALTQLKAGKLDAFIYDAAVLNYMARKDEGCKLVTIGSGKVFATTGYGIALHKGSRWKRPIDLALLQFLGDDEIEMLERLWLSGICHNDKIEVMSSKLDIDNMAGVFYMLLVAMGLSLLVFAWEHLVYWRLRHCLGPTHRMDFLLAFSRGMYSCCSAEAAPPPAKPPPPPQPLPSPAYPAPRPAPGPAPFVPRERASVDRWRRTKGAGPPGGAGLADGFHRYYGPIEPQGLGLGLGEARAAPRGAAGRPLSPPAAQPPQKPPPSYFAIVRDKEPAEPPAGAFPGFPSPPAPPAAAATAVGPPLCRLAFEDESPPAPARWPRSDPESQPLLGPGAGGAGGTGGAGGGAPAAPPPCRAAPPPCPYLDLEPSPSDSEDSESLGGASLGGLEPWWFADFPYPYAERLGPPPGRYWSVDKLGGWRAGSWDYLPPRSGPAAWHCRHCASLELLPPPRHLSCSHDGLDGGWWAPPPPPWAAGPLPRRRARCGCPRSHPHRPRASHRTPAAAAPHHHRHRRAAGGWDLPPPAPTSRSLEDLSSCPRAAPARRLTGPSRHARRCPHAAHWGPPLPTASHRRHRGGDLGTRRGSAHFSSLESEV
- test: NR2D oocyte potentiation assay (two-electrode voltage clamp)
- Format: cell-based
- condition: 10 uM test compound; glutamate and glycine 10 μM each; holding potential −40 mV
Entries and their measured activation at 10 µM follow.

Below: 3 compounds and their reported activation at 10 µM.
COc1cc(-c2nc3n(c(=O)c2C#N)CCCS3)cnc1C(C)(C)C [Example 60]; 500 to 1000%
COCOC[C@@H]1CSc2nc(-c3cnc(C(C)(C)C)c(F)c3)c(C#N)c(=O)n2C1 [Example 172]; > 1000%
CC(C)(C)c1ncc(-c2nc3n(c(=O)c2C#N)CC(C(=O)N2CCOCC2)CS3)cc1F (centres unmarked) [Example 162]; 100 to 500%

Query: # activation at 10 µM lookup, item C[C@@H]1CSc2nc(-c3ccc(C(C)(C)C)nc3)c(C#N)c(=O)n2C1 [Example 45]
Response: > 1000%

Query: Give the measured activation at 10 µM of CN1CCCn2c1nc(-c1ccc(C(C)(C)C)nc1)c(C#N)c2=O [Example 94] .
Response: 100 to 500%

Query: Sample N#Cc1c(-c2ccc(C3CC3)nc2)nc2n(c1=O)CCCS2 [Example 181] — what was its activation at 10 µM?
Response: 10 to 100%

Query: # lookup: activation at 10 µM of CCN1CSc2nc(-c3ccc(C(C)(C)C)cc3)c(C#N)c(=O)n2C1 [Example 7]
Response: 10 to 100%

Query: Please report the recorded activation at 10 µM for CN(C)C(=O)C1CSc2nc(-c3cnc(C(C)(C)C)c(F)c3)c(C#N)c(=O)n2C1 (centres unmarked) [Example 161] .
Response: 100 to 500%

====

- tgt: human GRIN1 (transcript variant NR1-3) and GRIN2D expressed in Xenopus oocytes (Homo sapiens)
- Construct: GenScript (GRIN2D synthesis) SC115601; host or cells: Xenopus oocytes injected with cRNA (1 GluN1 : 2 GluN2)
- test: NR2D oocyte potentiation assay (two-electrode voltage clamp)
- Type: cell-based
- condition: 10 uM test compound; glutamate and glycine 10 μM each; holding potential −40 mV
property_label: activation at 10 µM

// known answers, use as guide
N#Cc1c(-c2ccc(Br)nc2)nc2n(c1=O)CCCS2; 10 to 100%
CSc1c(-c2ccc(C(C)(C)C)nc2)nc2n(c1=O)CCCC2; < 10%
CC1CSc2nc(-c3ccc(C(C)(C)CF)nc3)c(C#N)c(=O)n2C1 (stereo not drawn); 500 to 1000%
CN1CSc2nc(-c3ccc(C(C)(C)C)nc3)c(C#N)c(=O)n2C1; 10 to 100%
COCOCC1CSc2nc(-c3cnc(C(C)(C)C)c(F)c3)c(C#N)c(=O)n2C1 (stereo not drawn); > 1000%
CC(C)(C)c1ccc(-c2nc3n(c(=O)c2Br)CCCS3)cc1; 100 to 500%
CCN1CSc2nc(-c3cnc(C(C)(C)C)nc3)c(C#N)c(=O)n2C1; 10 to 100%
CC(C)(C)c1ccc(-c2nc3n(c(=O)c2C#N)C[C@H](CO)CS3)cn1; 100 to 500%
CSc1cc(-c2nc3n(c(=O)c2C#N)CC(C)CS3)cnc1C(C)(C)C (stereo not drawn); > 1000%
C[C@H]1CSc2cc(-c3ccc(C4(C)CC4)nc3)c(C#N)c(=O)n2C1; > 1000%

Query: activation at 10 µM; subject: CC(C)(C)c1ncc(-c2nc3n(c(=O)c2C#N)CC(CN2CCCC2)CS3)cc1F (stereo not drawn)
Response: 10 to 100%

Query: Given the compound CC1CSc2cc(-c3cnc(C(C)(C)C)nc3)c(C#N)c(=O)n2C1 (stereo not drawn) , what is its reported activation at 10 µM?
Response: > 1000%

Query: Reported activation at 10 µM, compound C[C@H]1CSc2nc(-c3cnc(C(C)(C)C)c(F)c3)c(C#N)c(=N)n2C1 : ____
Response: > 1000%
